All values here come from patent US20200407370A1.

assay: Pharmacokinetics (PK) of the compound in rats
Format: in vivo
test-parameters: rat, plasma; SD rats, IV 1 mg/kg, n = 3; read-out: AUClast iv (area under concentration-time curve 0-24 h)
Reported AUC(0-t) values are given for each entry in this list.

{"compound": "COc1cc(C(=O)N2CCC[C@@H](N)C2)cc2nc(-c3cc4ccsc4n3CC(C)C)n(C)c12", "value-units": "ng·h/mL", "AUC(0-t)": 3160}
{"compound": "COc1cc(C(=O)N2CCC[C@@H](N)C2)cc2nc(-c3cc4cc(C)sc4n3CC3CC3)n(C)c12", "value-units": "ng·h/mL", "AUC(0-t)": 887}
{"compound": "COc1cc(C(=O)N2CCC[C@@H](N)C2)cc2nc(-c3cc4ccsc4n3CC(F)(F)F)n(C)c12", "value-units": "ng·h/mL", "AUC(0-t)": 772}
{"compound": "CCn1c(-c2nc3cc(C(=O)N4CCC[C@@H](N)C4)cc(OC)c3n2C)cc2cc(C)sc21", "value-units": "ng·h/mL", "AUC(0-t)": 303}
{"compound": "CCn1c(-c2nc3cc(C(=O)N4CCC[C@@H](N)C4)cc(OC)c3n2C)cc2ccsc21", "value-units": "ng·h/mL", "AUC(0-t)": 1200}
{"compound": "COc1cc(C(=O)N2CCC[C@@H](N)C2)cc2nc(-c3cc4ccsc4n3CC3CC3)n(C)c12", "value-units": "ng·h/mL", "AUC(0-t)": 1010}
{"compound": "COc1cc(C(=O)N2CCC[C@@H](N)C2)cc2nc(-c3cc4ccsc4n3CC3CCC3)n(C)c12", "value-units": "ng·h/mL", "AUC(0-t)": 7680}
{"compound": "CCn1c(-c2nc3cc(C(=O)N4CCC[C@@H](N)C4)cc(OC)c3n2C)cc2cccnc21 [Compound GSK199, reference compound]", "value-units": "ng·h/mL", "AUC(0-t)": 330}
